Hey, just so you know, these numbers are from patent US20220306762A1.

molecular target: T1, His-tagged human CD38 (ACRO Biosystems cat #CD8-H5224) (human, UniProt P28907 43-300); assay: SPR, captured scFv-Fc, His-CD38 analyte;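 further: SPR on a Carterra LSA, scFv-Fc captured by anti-human Fc on HC30M chip, His-tagged CD38 (human, mouse, cynomolgus) flowed as analyte in eight 1:2 steps from 400 nM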
T1 construct: bought recombinant protein with His tag
Give log10 of Kd for every item shown.
All values: base-10 log of Kd in nM.

Any idea what log10 of Kd was measured for 40769p1.1.E2 (scFv, V domains shown, tested as scFv-Fc supernatant) VH: EVLLLESGGGLVQPGGSLRLSCAASGFTFSDYWMSWVRQAPGKGLEWVSTISISAGIIYYADSVKGRFTISRDNSKNTLYLQMNSLRAEDTAVYYCAKDNWNDYYGMDVWGQGTTVTVSS VL: QSVLTQPPSASGTPGQRVTMSCSGNNQNIRDNYVYWYQQVPGTAPKLLIYKDDQRPSGVPDRFSGSKSGTSASLAISGLQSEDEADYYCATWDGSLKARVFGGGTKLTVL ?
0.51

Any idea what log10 of Kd was measured for 40617p1.2.H8 (scFv, V domains shown, tested as scFv-Fc supernatant) VH: EVQLLESGGGLVQPGGSLRLSCAASGFTFSSYWMTWVRQAPGKGLEWVSAISSYGGNYMYYADSVKGRFTISRDNSKDTLYLQMNSLRAEDTAVYYCAKDWDDGMDVWGQGTTVTVSS VL: EIVMTQSPATLSVSPGDRATLSCRASQSVNSKLAWYQQKPGQAPRLLIYAASSRATGIPDRFSGSGSGTDFTLTISRLEPEDFAVYYCQQYYDLPPYSFGGGTKVEIK ?
1.78

Any idea what log10 of Kd was measured for 40769p1.1.A2 (scFv, V domains shown, tested as scFv-Fc supernatant) VH: EVQLLESGGGLVQPGGSLRLSCAASGFLFDDYGMSWVRQAPGKGLEWVSAISYKGGSTYYADSVKGRFTISRDNSKNTLYLQMSSLRAEDTAVYYCAKDHKWNYYGMDVWGQGTTVTVSS VL: QSVLTQPPSASGTPGQRVTISCSGSTSNIGNDNYVSWYQQLPGTAPRLLIYKDDQRPSGVPDRFSGSKSGTSASLAISGLQSEDEADYYCGTWDDRLNAWVFGGGTKLTVL ?
-0.50

Any idea what log10 of Kd was measured for 40769p1.2.B10 (scFv, V domains shown, tested as scFv-Fc supernatant) VH: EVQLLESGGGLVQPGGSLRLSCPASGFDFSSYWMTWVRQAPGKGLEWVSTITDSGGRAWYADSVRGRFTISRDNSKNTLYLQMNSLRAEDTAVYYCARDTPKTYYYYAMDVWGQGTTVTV VL: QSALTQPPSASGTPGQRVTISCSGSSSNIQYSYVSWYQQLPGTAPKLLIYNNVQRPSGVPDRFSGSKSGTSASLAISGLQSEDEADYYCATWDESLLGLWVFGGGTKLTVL ?
0.16

Any idea what log10 of Kd was measured for 40566p1.A8 (scFv, V domains shown, tested as scFv-Fc supernatant) VH: DVQLVESGGGVVRPGESLRLSCAASGFTFDNYDMTWVRQAPGEGLEWVSFISSRGTFTYYTDSVKGRFTISRDNSKNTLYLQMNSLRAEDTAIYYCAKDSGEYYFFDYWGLGTLVTVSS VL: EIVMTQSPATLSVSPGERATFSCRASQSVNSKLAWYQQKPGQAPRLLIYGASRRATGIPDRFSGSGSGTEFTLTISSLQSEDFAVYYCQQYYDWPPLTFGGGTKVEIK ?
-0.06

Any idea what log10 of Kd was measured for 40596p1.E4 (scFv, V domains shown, tested as scFv-Fc supernatant) VH: EVQLLESGGGLVQPGGSLRLSCAASGFDFSGSAMSWVRQAPGKGLEYVAGLGWSGSFIYYADSVKGRSTISRDNSKNTLYLQLNSLRAEDTAVYYCARNPGFGEMDVWGQGTTVTVSS VL: EIVLTQSPGSLSLSPGERATLSCRASQTVGSNLAWYQQKPGQAPRLLIYGASTRATDIPDRFSGSGSGTEFTLTISSLQSEDFAVYYCQQYNSWPPLTFGGGTKVEIK ?
1.76

Any idea what log10 of Kd was measured for 40566p1.A7 (scFv, V domains shown, tested as scFv-Fc supernatant) VH: RELVESGGGVVRPGESLRLSCAASGFTFDNYDMTWVRQAPGEGLEWVSFISSRGTFTYYTDSVRGRFTISRDNSKNTLYLEMNSLRAEDTAIYYCAKDSGEYYFFDYWGLGTLVTVSS VL: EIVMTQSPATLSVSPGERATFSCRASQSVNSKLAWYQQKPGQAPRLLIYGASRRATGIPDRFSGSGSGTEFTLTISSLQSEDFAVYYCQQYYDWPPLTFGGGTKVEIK ?
5.31

Any idea what log10 of Kd was measured for 40769p1.2.B4 (scFv, V domains shown, tested as scFv-Fc supernatant) VH: EVQLLESGGDLVQPGGSLRLSCGASGFTFSDHYMSWVRQAPGKGLEWVADISARGSNTWYADSVKGRFTISRDNSENTLYLQMNSLRAEDTAVYYCAKNWNYNYGMDVWGHGTTVTVSS VL: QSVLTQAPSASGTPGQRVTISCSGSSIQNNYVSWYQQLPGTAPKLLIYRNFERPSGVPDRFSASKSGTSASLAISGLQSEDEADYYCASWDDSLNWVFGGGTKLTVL ?
0.38

Any idea what log10 of Kd was measured for 40769p1.1.B8 (scFv, V domains shown, tested as scFv-Fc supernatant) VH: EVQLLESGGGLVQPGGSLRLSCAASGFTFEDYAMSWVRQAPGKGLEWVSVISSKGGSTSNADSVKGRFTISRDNSKNTLYLQMNSLRAEDTAVYYCAKGMERQYYSYNAMDVWGQGTTVTVSS VL: QSVLTQPPSASGTPGQRVTISCSGSNSNIDVDYVYWYQQLPGTAPRLLIYKDDQRPSGVPDRFSGSKSGTSASLAISGLQSEDEADYYCATWDDNLNSWLFGGGTKLTVL ?
-1.00

Any idea what log10 of Kd was measured for 40596p1.F6 (scFv, V domains shown, tested as scFv-Fc supernatant) VH: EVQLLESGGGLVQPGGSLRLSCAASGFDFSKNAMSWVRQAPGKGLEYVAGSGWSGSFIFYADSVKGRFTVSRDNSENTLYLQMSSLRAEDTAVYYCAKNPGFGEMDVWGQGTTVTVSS VL: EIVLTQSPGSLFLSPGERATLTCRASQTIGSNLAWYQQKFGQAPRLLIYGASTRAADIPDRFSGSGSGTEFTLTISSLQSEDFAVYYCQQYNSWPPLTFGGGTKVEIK ?
1.93
